# procedureText: AUClast in Swiss Webster mouse at 10 mg/kg, po
# Assay type: ADME, organism-based
# Set-up: time 0 - last, dose 10 mg/kg, route oral
# conditionDescription: plasma
endpointLabel: AUC(0-t) (ng·h/mL)
# number only, unit ng·h/mL dropped from output

[ask] I have this compound here, COc1ccc(C(=O)N2CCN(c3ccccn3)CC2)cc1C#Cc1ccccn1 , and I need its recorded AUC(0-t).
[reply] 519

====

# procedureText: Half life in rat liver microsomes
# Type: ADME, Microsome
If the reported half-life equals or exceeds 5 min, assign YES. If not, assign NO.

Some solved entries appear below for comparison.
smilesRecord	categoryLabel
COc1cccc(C#Cc2cccc(C(=O)N3CCN(c4ccccn4)CC3)c2)c1	NO
COc1ccc(C(=O)N2CCN(c3ccncn3)CC2)cc1C#Cc1ccccn1	YES
O=C(c1cccc(C#Cc2ccccc2)c1)N1CCN(c2ccccn2)CC1	NO
O=C(c1cccc(C#CCc2ccccc2)c1)N1CCN(c2ccccn2)CC1	NO
COc1ccc(C(=O)N2CCN(c3ccncn3)CC2)cc1C#Cc1cccc(Cl)c1	YES
Cc1ccc(C(=O)N2CCN(c3cnccn3)CC2)cc1C#Cc1ccccc1	YES

[ask] Does the reported half-life for O=C(c1cccc(C#Cc2ccccc2)c1)N1CCN(c2cnccn2)CC1 fall at or above the 5 min mark?
[reply] NO

[ask] Next: COc1ccc(C(=O)N2CCN(c3ccccn3)CC2)cc1C#Cc1ccccc1
[reply] YES

[ask] Next: COc1ccc(C(=O)N2CCN(c3ccccn3)CC2)cc1C#Cc1cccc(C)n1
[reply] YES

====

# procedureText: Volume of distribution at steady state in Beagle dog at 2 mg/kg, iv
# Type: ADME, organism-based, Canis lupus familiaris
# Parameters: dose 2 mg/kg, route intravenous
# conditionDescription: in vivo, read-out: Vdss
endpointLabel: Vd

[ask] I have this compound here, COc1ccc(C(=O)N2CCN(c3ccccn3)CC2)cc1C#Cc1ccccn1 , and I need its recorded Vd.
[reply] 0.5 L/kg

====

# procedureText: Volume of distribution at steady state in Sprague-Dawley rat at 2 mg/kg, iv
# Format: ADME, organism-based
# Set-up: dose 2 mg/kg, route intravenous
# conditionDescription: in vivo, read-out: Vdss
endpointLabel: Vd (L/kg)
# number only, unit L/kg dropped from output

[ask] I have this compound here, COc1ccc(C(=O)N2CCN(c3ccccn3)CC2)cc1C#Cc1ccccn1 , and I need its recorded Vd.
[reply] 0.9

====

# procedureText: Clearance in Swiss Webster mouse at 2 mg/kg, iv
# Assay type: ADME, organism-based
# Parameters: dose 2 mg/kg, route intravenous
# conditionDescription: in vivo
endpointLabel: clearance (mL/min/kg)
# number only, unit mL/min/kg dropped from output

[ask] I have this compound here, COc1ccc(C(=O)N2CCN(c3ccccn3)CC2)cc1C#Cc1ccccn1 , and I need its recorded clearance.
[reply] 121

====

# procedureText: Cmax in Swiss Webster mouse at 10 mg/kg, po
# Format: ADME, organism-based
# Parameters: dose 10 mg/kg, route oral
# conditionDescription: in vivo
endpointLabel: Cmax (µM)
# number only, unit µM dropped from output

[ask] I have this compound here, COc1ccc(C(=O)N2CCN(c3ccccn3)CC2)cc1C#Cc1ccccn1 , and I need its recorded Cmax.
[reply] 3.5

====

# procedureText: Clearance in Beagle dog at 2 mg/kg, iv
# Assay type: ADME, organism-based, Canis lupus familiaris
# Set-up: dose 2 mg/kg, route intravenous
# conditionDescription: in vivo
endpointLabel: clearance (mL/min/kg)
# number only, unit mL/min/kg dropped from output

[ask] I have this compound here, COc1ccc(C(=O)N2CCN(c3ccccn3)CC2)cc1C#Cc1ccccn1 , and I need its recorded clearance.
[reply] 3
